Numbers sourced from PubChem BioAssay (NCATS).

target: Aldehyde dehydrogenase, mitochondrial (Homo sapiens) (UniProt P05091); assay: qHTS for Inhibitors of the Aldehyde Dehydrogenase Family (ALDH2) Primary screen (AID 2061308); settings: ALDH2 enzyme inhibition qHTS, 1536-well; series mostly up to 56 µM; further: nearly all actives have a fitted effect of over 55% in size
Results filed as inconclusive are left out. Active and inactive are the calls of the source. The call rests on the fitted dose curve; in most records, active means well fitted inhibition curve with a large enough effect; inconclusive means small, poorly fitted or top-dose-only effect; inactive means flat fitted curve, though single readings scatter.
endpoint.label: activity change, negative = inhibition

molecule=C=C[C@H]1[C@H](O[C@@H]2O[C@H](CO)[C@@H](O)[C@H](O)[C@H]2O)OC=C(C(=O)OC)[C@H]1C[C@@H]1N[C@H](C(=O)O)Cc2c1[nH]c1ccccc21 endpoint_label="activity change, negative = inhibition" result=inactive
molecule=COC(=O)Nc1nc2ccc(C(=O)c3ccc(F)cc3)cc2[nH]1 endpoint_label="activity change, negative = inhibition" result=inactive
molecule=COc1ccc(C2=Nn3c(nnc3-c3ccc(OC)c(OC)c3)SC2)c(OC)c1 endpoint_label="activity change, negative = inhibition" result=inactive
molecule=CC(C)(O)c1ccc2c(c1)C(=O)C[C@H]1[C@](C)(C(=O)O)CCC[C@]21C endpoint_label="activity change, negative = inhibition" result=inactive
molecule=N#Cc1c[nH]c2c(C(=O)N3CCN(CCc4ccc(F)cc4)CC3)cccc12 endpoint_label="activity change, negative = inhibition" result=inactive
molecule=COc1ccc(CNCc2cccc3ccccc23)cc1 endpoint_label="activity change, negative = inhibition" result=inactive
molecule=Nc1nc(O)c(C2=C3C(=Nc4ccccc43)C(=O)NCC2)[nH]1 endpoint_label="activity change, negative = inhibition" result=inactive
molecule=C=C1CC/C=C(/CO)C(=O)C[C@@H]2[C@@H]1CC2(C)C endpoint_label="activity change, negative = inhibition" result=inactive
molecule=O=C(O)c1cccc(-c2noc(-c3ccccc3F)n2)c1 endpoint_label="activity change, negative = inhibition" result=inactive
molecule=O=C(Cn1c2ccccc2c2nc3n(c(=O)c21)CCS3)N1CCCC1 endpoint_label="activity change, negative = inhibition" result=inactive
molecule=Cc1cc2c(cc1C1(c3ccc(C(=O)O)cn3)CC1)C(C)(C)CCC2(C)C endpoint_label="activity change, negative = inhibition" result=inactive
molecule="CC(=O)OC(CSC1CCC(=O)OC(C)CCC(=O)C1)C(=O)O (configuration not stated)" endpoint_label="activity change, negative = inhibition" result=inactive
molecule=CN(C)Cc1c(C(=O)NCCOc2ccc(C(=O)NO)cc2)oc2ccccc12 endpoint_label="activity change, negative = inhibition" result=inactive
molecule=Cn1nnnc1Sc1ncnc2scc(-c3cccc(Br)c3)c12 endpoint_label="activity change, negative = inhibition" result=inactive
molecule="CC(C)(C)c1cc(CN2CCN(CC(O)c3ccc(Cl)cc3)CC2)cc(C(C)(C)C)c1O (configuration not stated)" endpoint_label="activity change, negative = inhibition" result=inactive
molecule=CC1(NC(=O)c2ccc(C#Cc3cccc(F)c3)cn2)COC1 endpoint_label="activity change, negative = inhibition" result=inactive
molecule=O=C(c1ccccn1)N(Cc1cccs1)C1(C(=O)NC2CCCCC2)CCCCC1 endpoint_label="activity change, negative = inhibition" result=inactive
molecule=COc1cc(Nc2nc3ccccc3nc2NS(=O)(=O)c2ccc(NC(=O)c3ccc(C)c(OC)c3)cc2)cc(OC)c1 endpoint_label="activity change, negative = inhibition" result=inactive
molecule=COC(=O)C1=CO[C@@H](O[C@@H]2O[C@H](CO[C@@H]3O[C@H](COC(=O)/C=C/c4cc(OC)c(O)c(OC)c4)[C@@H](O)[C@H](O)[C@H]3O)[C@@H](O)[C@H](O)[C@H]2O)[C@@H]2C(CO)=CC[C@H]12 endpoint_label="activity change, negative = inhibition" result=inactive
molecule="C=C1CCC2C(C)(COC3OC(COC(=O)CC(=O)O)C(O)C(O)C3O)CCCC2(C)C1CCC1=CCOC1=O (configuration not stated)" endpoint_label="activity change, negative = inhibition" result=inactive
molecule="CC1(C)C2CCC1(C)C(OC(=O)C(O)(CC(=O)O)CC(=O)O)C2 (configuration not stated)" endpoint_label="activity change, negative = inhibition" result=inactive
molecule=COc1cc(CCCO)ccc1O[C@@H]1O[C@H](CO)[C@@H](O)[C@H](O)[C@H]1O endpoint_label="activity change, negative = inhibition" result=inactive
molecule=Cc1nc(Nc2ncc(C(=O)Nc3c(C)cccc3Cl)s2)cc(N2CCN(CCO)CC2)n1 endpoint_label="activity change, negative = inhibition" result=inactive
molecule=CC1(C)CCC[C@]2(C)[C@H]3CC(=O)O[C@]3(C)CC[C@@H]12 endpoint_label="activity change, negative = inhibition" result=inactive
molecule=COc1cc2c(c(OC)c1CC=C(C)C)C[C@H](c1ccc(O)c(CC=C(C)C)c1O)CO2 endpoint_label="activity change, negative = inhibition" result=inactive
molecule=O=S1(=O)N=C(Oc2ccccc2)c2ccccc21 endpoint_label="activity change, negative = inhibition" result=inactive
molecule=C[C@H]1Oc2cc(cnc2N)-c2c(nn(C)c2C#N)CN(C)C(=O)c2ccc(F)cc21 endpoint_label="activity change, negative = inhibition" result=inactive
molecule=Cn1ncnc1[C@@H]1c2n[nH]c(=O)c3cc(F)cc(c23)N[C@H]1c1ccc(F)cc1 endpoint_label="activity change, negative = inhibition" result=inactive
molecule=COc1c2c(c(C)c3c1C(=O)OC3)O[C@@]1(C)C[C@@H](O)[C@]34O[C@](OC)(CC[C@]3(C)[C@H]1C2)OC4(C)C endpoint_label="activity change, negative = inhibition" result=inactive
molecule=CCOc1cc(C(=O)N2CCC(N3CCN(C)CC3)CC2)ccc1Nc1ncc2c(n1)N(C1CCCC1)c1ccccc1C(=O)N2C endpoint_label="activity change, negative = inhibition" result=inactive
molecule="CCC1=C(C)C(=O)C(C)CC12C(=O)CCC2C(=O)O (configuration not stated)" endpoint_label="activity change, negative = inhibition" result=inactive
molecule="CC(C)=CCCC1(C)C=Cc2c(c(C)cc3c2[nH]c2ccccc23)O1 (configuration not stated)" endpoint_label="activity change, negative = inhibition" result=inactive
molecule=COc1cc(Br)c(S(=O)(=O)Nc2ccc(C(F)(F)F)c(O[C@@H]3CCN(C)C3)c2)cc1OC endpoint_label="activity change, negative = inhibition" result=inactive
molecule=CCCCNc1ccc(C(=O)OCCN(CC)CC)cc1 endpoint_label="activity change, negative = inhibition" result=inactive
molecule=CN(C)CCC[C@]1(c2ccc(F)cc2)OCc2cc(C#N)ccc21 endpoint_label="activity change, negative = inhibition" result=inactive
molecule="CC(=O)O[C@H]1[C@H](O)C[C@@]2(C)C(CC[C@]3(C)C2CC=C2C4CC(C)(C)CC[C@]4(C(=O)O)CC[C@]23C)C1(C)C (some centres not stated)" endpoint_label="activity change, negative = inhibition" result=inactive
molecule="O=C(O)C(O[C@@H]1O[C@H](CO[C@@H]2O[C@H](CO)[C@@H](O)[C@H](O)[C@H]2O)[C@@H](O)[C@H](O)[C@H]1O)c1ccccc1 (some centres not stated)" endpoint_label="activity change, negative = inhibition" result=inactive

----------
molecular target: Retinal dehydrogenase 2 (Homo sapiens); test: qHTS for Inhibitors of the Aldehyde Dehydrogenase Family (ALDH1A2) Confirmation screens (AID 2061314); conditions: ALDH1A2 enzyme inhibition qHTS confirmation; series mostly up to 45.9 µM; further: nearly all actives have a fitted effect of over 65% in size; further: potency means the concentration at half of the fitted maximal effect
Inconclusive results are not listed. Calls of active or inactive are those of the source. Calls follow the shape of the dose curve; as a rule, active = well fitted inhibition curve with a large enough effect; inconclusive = small, poorly fitted or top-dose-only effect; inactive = no such curve, though single readings can be large or run the other way.
endpoint.label: Potency

smiles_text=O=C(O)c1ccccc1OC1=NS(=O)(=O)c2ccccc21 assayed_system="Retinal dehydrogenase 2 (Homo sapiens)" endpoint_label=Potency result=inactive
smiles_text=O=S(=O)(NCCc1nnc2ccc(SCc3ccc(C(F)(F)F)cc3)nn12)c1ccccc1 assayed_system="Retinal dehydrogenase 2 (Homo sapiens)" endpoint_label=Potency result=inactive
smiles_text=CC(C)(C)OC(=O)N1CCN(c2cnc(NCc3ccc(-c4ccc(C#N)cc4)o3)cn2)CC1 assayed_system="Retinal dehydrogenase 2 (Homo sapiens)" endpoint_label=Potency result="1.79 µM (active)"
smiles_text=Cc1ccccc1C[C@H](C(=O)O)N1C(=O)c2ccc(C(=O)O)cc2C1=O assayed_system="Retinal dehydrogenase 2 (Homo sapiens)" endpoint_label=Potency result=inactive
smiles_text=COc1ccnc(CCc2nc3ncccc3[nH]2)c1 assayed_system="Retinal dehydrogenase 2 (Homo sapiens)" endpoint_label=Potency result=inactive
smiles_text=O=C(Nc1ccc2ccccc2c1)Nc1nnc(-c2cccnc2)s1 assayed_system="Retinal dehydrogenase 2 (Homo sapiens)" endpoint_label=Potency result="12.7 µM (active)"

----------
assay: BET inhibitor-based combinations targeting novel dependencies in MECOM-rearranged (r) AML: AML-191 cell line (AID 2202236; further: nearly all actives have a fitted effect of over 35% in size); conditions: AML-191 viability, CellTiter-Glo luminescence, 48 h; series mostly up to 46 µM
Inconclusive results are not listed. Active and inactive are the calls of the source. Calls follow the shape of the dose curve; as a rule, active = well fitted inhibition curve with a large enough effect; inconclusive = small, poorly fitted or top-dose-only effect; inactive = flat fitted curve, though single readings scatter.
Outcomes: YES (active), NO (inactive)

compound=COc1ccc(S(=O)(=O)Nc2cc(-c3c(O)ccc4ccccc34)c(O)c3ccccc23)cc1 category_label=YES
compound="O=c1[nH]c(=O)n(C2CCCO2)cc1F (stereo not given)" category_label=NO
compound=COC(=O)Nc1nc2ccc(C(=O)c3ccc(F)cc3)cc2[nH]1 category_label=YES
compound="Cc1ccc(S(=O)(=O)NC(=O)NN2CC3CCCC3C2)cc1 (stereo not given)" category_label=NO
compound=COc1ccc2nc3cc(Cl)ccc3c(Nc3cc(CN4CCCC4)c(O)c(CN4CCCC4)c3)c2n1 category_label=YES
